# assayed system: T1, rat parathyroid hormone receptor 1, wild-type (rPTHR-1) (rat, UniProt P25961 27-591)
# T1 sequence (looked up): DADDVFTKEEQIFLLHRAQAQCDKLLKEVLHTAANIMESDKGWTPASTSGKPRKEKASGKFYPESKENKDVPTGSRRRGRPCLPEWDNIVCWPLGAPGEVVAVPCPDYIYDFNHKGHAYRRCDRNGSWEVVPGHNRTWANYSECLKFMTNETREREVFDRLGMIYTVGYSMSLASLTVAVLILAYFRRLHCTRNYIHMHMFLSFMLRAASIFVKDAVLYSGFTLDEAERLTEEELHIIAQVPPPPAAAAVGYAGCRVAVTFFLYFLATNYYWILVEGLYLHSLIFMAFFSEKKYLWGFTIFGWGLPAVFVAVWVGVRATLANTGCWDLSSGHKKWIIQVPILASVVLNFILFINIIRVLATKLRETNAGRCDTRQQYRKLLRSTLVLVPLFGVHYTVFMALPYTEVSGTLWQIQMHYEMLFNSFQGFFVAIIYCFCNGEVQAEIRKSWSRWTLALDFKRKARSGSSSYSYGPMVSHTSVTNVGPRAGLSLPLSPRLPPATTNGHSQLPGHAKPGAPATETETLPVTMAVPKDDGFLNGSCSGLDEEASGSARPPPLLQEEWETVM
# assay summary: cell-based or functional assay
Non-standard residues stand in square brackets, D forms with d. No end group written: not given here. β3hW = N[C@H](CC(=O)O)Cc1c[nH]c2ccccc12; β3hE = N[C@@H](CCC(=O)O)CC(=O)O; β3hF = N[C@H](CC(=O)O)Cc1ccccc1; β3hK = NCCCC[C@H](N)CC(=O)O; β3hM = CSCC[C@H](N)CC(=O)O; β3hD = NC(CC(=O)O)CC(=O)O

binder	cAMP Max
SVSEIQLMHNLGKHLNSMERVEWLRKKLQDVHNF-NH2 [PTH(1-34)]	65 cps × 10-3
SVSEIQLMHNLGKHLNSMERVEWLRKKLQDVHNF-NH2 (also: three β3 residues (αααβ pattern), positions not given here in text) [A3]	74 cps × 10-3
SVSEIQLMHNLGKHLNSMERVEWLRKKLQDVQNF-NH2 (not fully specified (residue 32); printed as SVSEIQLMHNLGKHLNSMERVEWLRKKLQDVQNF-NH2; also: three β3 residues, positions not given here in text, also called α/β-peptide B3) [B3]	69 cps × 10-3
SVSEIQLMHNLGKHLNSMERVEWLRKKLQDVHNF-NH2 (also: three β3 residues, αααβ pattern, positions not given here) [D3]	65 cps × 10-3
SVSEIQLMHNLGKWLNSMERVEWLRKKLQDVHNF-NH2 (not fully specified (residue 14); printed as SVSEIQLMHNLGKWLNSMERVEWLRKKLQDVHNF-NH2; also: seven β3 residues, positions not given here in text, also called α/β-peptide D7) [D7]	40 cps × 10-3
SVSEIQLMHNLGK[β3hW]LNS[β3hM]ERV[β3hE]WLR[β3hK]KLQ[β3hD]VHN[β3hF]-NH2 (also called α/β-peptide D6) [D6]	50 cps × 10-3
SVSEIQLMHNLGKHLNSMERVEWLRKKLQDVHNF-NH2 (also: five β3 residues, αααβ pattern, positions not given here) [C5]	48 cps × 10-3
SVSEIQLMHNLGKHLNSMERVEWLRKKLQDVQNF-NH2 (not fully specified (residues 20, 24, 28, 32); printed as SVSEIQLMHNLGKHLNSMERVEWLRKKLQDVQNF-NH2; also: five β3 residues, positions not given here in text, also called α/β-peptide B5) [B5]	51 cps × 10-3
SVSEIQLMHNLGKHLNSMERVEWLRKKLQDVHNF-NH2 (not fully specified (residue 19)) [A5]	54 cps × 10-3
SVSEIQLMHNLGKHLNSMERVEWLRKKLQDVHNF-NH2 (also: three β3 residues, αααβ pattern, positions not given here) [C3]	68 cps × 10-3
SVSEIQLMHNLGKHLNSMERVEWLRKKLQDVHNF-NH2 (also: five β3 residues, αααβ pattern, positions not given here) [D5]	43 cps × 10-3

Origin of the recorded values: patent US20140378382A1
